Measured values drawn from patent US20120010241A1 for this set.

Listing of recorded IC50 by entry.
Target: Hsp82 (Saccharomyces cerevisiae, UniProt P02829)
Sequence (P02829 whole entry): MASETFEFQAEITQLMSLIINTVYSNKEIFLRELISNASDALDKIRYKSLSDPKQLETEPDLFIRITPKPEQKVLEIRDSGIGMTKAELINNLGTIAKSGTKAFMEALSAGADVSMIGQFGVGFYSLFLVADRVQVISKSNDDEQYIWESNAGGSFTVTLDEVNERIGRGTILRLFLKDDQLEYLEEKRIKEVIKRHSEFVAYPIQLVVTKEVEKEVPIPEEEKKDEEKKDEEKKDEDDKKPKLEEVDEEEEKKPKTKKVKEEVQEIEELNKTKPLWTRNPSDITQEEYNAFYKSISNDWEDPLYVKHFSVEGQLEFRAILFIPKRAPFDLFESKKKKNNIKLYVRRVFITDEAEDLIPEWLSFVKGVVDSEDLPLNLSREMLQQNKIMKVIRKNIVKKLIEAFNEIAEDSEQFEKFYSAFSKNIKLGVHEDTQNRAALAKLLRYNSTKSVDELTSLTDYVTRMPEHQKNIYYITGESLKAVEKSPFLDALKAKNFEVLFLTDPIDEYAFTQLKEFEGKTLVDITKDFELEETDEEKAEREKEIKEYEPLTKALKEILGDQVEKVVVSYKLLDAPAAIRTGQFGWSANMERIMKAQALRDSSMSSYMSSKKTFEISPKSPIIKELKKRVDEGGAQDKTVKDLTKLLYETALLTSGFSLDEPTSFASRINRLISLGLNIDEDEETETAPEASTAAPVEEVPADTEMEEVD
value_kind: IC50

compound="Cc1nn(-c2ccc(C(N)=O)c(N[C@H]3CC[C@H](O)CC3)c2)c2cccc(-c3cnc4ccccc4c3)c12 [Example 1]" meas_value="< 1 µM"
compound="Cc1nn(-c2ccc(C(N)=O)c(NC3CC(C)(C)N(C)C(C)(C)C3)c2)c2cccc(-c3cnc4ccccc4c3)c12 [Example 15]" meas_value="1 to 10 µM"
